- tested on: T1, mouse GLP-1 receptor (mouse, UniProt O35659 22-463)
- T1 sequence (looked up): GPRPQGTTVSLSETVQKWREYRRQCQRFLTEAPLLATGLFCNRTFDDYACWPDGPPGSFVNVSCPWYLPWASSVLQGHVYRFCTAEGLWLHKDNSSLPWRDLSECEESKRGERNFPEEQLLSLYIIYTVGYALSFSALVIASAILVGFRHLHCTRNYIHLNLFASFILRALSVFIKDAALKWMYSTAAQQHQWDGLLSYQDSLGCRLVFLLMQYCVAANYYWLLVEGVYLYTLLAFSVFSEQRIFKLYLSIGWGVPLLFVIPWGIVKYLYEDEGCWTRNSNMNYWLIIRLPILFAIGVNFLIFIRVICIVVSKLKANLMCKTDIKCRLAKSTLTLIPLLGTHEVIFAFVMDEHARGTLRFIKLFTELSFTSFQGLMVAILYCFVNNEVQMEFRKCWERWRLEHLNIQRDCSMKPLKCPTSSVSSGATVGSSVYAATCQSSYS
- method summary: cell-based or functional assay
Primed or numbered codes have the meaning given here. No end group written: not given here. branched PEG 40 kDa″ = 40 kDa branched poly(ethylene glycol)
// values below are reported EC50 mouse
# output: bare number, implied unit nM

Worked examples, 3 binders total:
Entry HGEGTFTSDVSSYLEGQAAKEFIAWLVKGRGC(PEG 30 kDa)SG [cgGLP-8 (SEQ ID NO: 10 + 30k PEG)] : reported EC50 mouse = ?
3

Entry HGEGTFTSDVSSYLEGQAAKEFIAWLVKGRGC(PEG 30 kDa)SG [cgGLP-16 (SEQ ID NO: 10 + 30k PEG)] : reported EC50 mouse = ?
4

Entry HGEGTFTSDVSSYLEGQAAKEFIAWLVKGRGC(branched PEG 40 kDa″)SG [cgGLP-5 (SEQ ID NO: 10 + 40k branched PEG)] : reported EC50 mouse = ?
1.5

New cases:
Entry HGEGTFTSDVSSYLEGQAAKEFIAWLVKGRGCSG (not fully specified (residue 32), also called cgGLP-09A) [cgGLP-4 & mgGLP-09A (SEQ ID NO: 10 + 20k PEG)] : reported EC50 mouse = ?
1.8

Entry HGEGTFTSDVSSYLEGQAAKEFIAWLVKGRGCSG [HGEGTFTSDVSSYLEGQAAKEFIAWLVKGRGCSG (SEQ ID NO: 10)] : reported EC50 mouse = ?
0.32

Entry HGEGTFTSDVSSYLEGQAAKEFIAWLVKGRGCSG (not fully specified (residue 32); also: dimer: two peptides on one mal-PEG-mal, one at each end) [cgGLP-6 (SEQ ID NO: 10 + 8k PEG dumbbell)] : reported EC50 mouse = ?
0.8
